assay: Selectivity index, ratio of HC50 for hemolytic activity in sheep RBC assessed as 50% hemolysis incubated for 30 mins by microplate reader method to MIC for antibacterial activity against Escherichia coli ATCC 25922 assessed as reduction in bacterial growth measured for 18 to 20 hrs by microbroth dilution method; assay type: toxicity; details: sheep red blood cells (erythrocytes), read-out: Selectivity Index
selectivity ratio at 30 min by entry:
Write the value as a bare number.

Below, 3 substances whose answers are already recorded.
substance | selectivity ratio at 30 min
H-KWRLFKKIGAVLKVL-NH2 | 188
H-KWKLFKKIGAVLRVL-NH2 | 70
H-RWRLFRRIGAVLRVL-NH2 | 58

Please give the measured selectivity ratio at 30 min for this substance: H-KWKLFKKIGAVLKVL-NH2
173

Please give the measured selectivity ratio at 30 min for this substance: H-KWKLFRKIGAVLKVL-NH2
234

Please give the measured selectivity ratio at 30 min for this substance: H-RWKLFKKIGAVLKVL-NH2
113

====

HC50 at 0.5 h by entry:
test: Hemolytic activity in sheep RBC assessed as 50% hemolysis incubated for 30 mins by microplate reader method; assay type: toxicity, cell-based, Ovis aries, Erythrocyte; settings: sheep red blood cells (erythrocytes)
Bridge positions count the residues as written; N and C are the ends. Peptide text beside a SMILES is read from it.

molecule | assayValue
CC[C@H](C)[C@@H]1NC(=O)[C@H](CCCCN)NC(=O)[C@H](CCCCN)NC(=O)[C@H](Cc2ccccc2)NC(=O)[C@H](CC(C)C)NC(=O)[C@H](CCCCN)NC(=O)[C@H](Cc2c[nH]c3ccccc23)NC(=O)[C@H](CCCCN)NC(=O)[C@@H](N)CSSC[C@@H](C(N)=O)NC(=O)[C@H](CC(C)C)NC(=O)[C@H](C(C)C)NC(=O)[C@H](CCCCN)NC(=O)[C@H](CC(C)C)NC(=O)[C@H](C(C)C)NC(=O)[C@H](C)NC(=O)CNC1=O (H-CKWKLFKKIGAVLKVLC-NH2; disulfide 1-17) | > 1000 µg/mL

Next molecule, HC50 at 0.5 h to be filled in.
Please give the measured HC50 at 0.5 h for this molecule: CC[C@H](C)[C@H](NC(=O)[C@H](CCCN)NC(=O)[C@H](CCCN)NC(=O)[C@H](Cc1ccccc1)NC(=O)[C@H](CC(C)C)NC(=O)[C@H](CCCN)NC(=O)[C@H](Cc1c[nH]c2ccccc12)NC(=O)[C@@H](N)CCCN)C(=O)NCC(=O)N[C@@H](C)C(=O)N[C@H](C(=O)N[C@@H](CC(C)C)C(=O)N[C@@H](CCCN)C(=O)N[C@H](C(=O)N[C@@H](CC(C)C)C(N)=O)C(C)C)C(C)C
> 1000 µg/mL

====

experiment: Selectivity index, ratio of HC50 for hemolytic activity in sheep RBC assessed as 50% hemolysis incubated for 30 mins by microplate reader method to MIC for antibacterial activity against Bacillus subtilis ATCC 6051 assessed as reduction in bacterial growth measured for 18 to 20 hrs by microbroth dilution method; assay type: toxicity; conditions: sheep red blood cells (erythrocytes), read-out: Selectivity Index
selectivity ratio at 30 min by entry:
Write the value as a bare number.

Below, 4 substances whose answers are already recorded.
substance | assayValue
H-RWRLFRRIGAVLRVL-NH2 | 14
H-KWRLFKKIGAVLKVL-NH2 | 23
H-KWKLFKKIGAVLKVL-NH2 | 22
H-KWKLFKKIGAVLRVL-NH2 | 9

Please give the measured selectivity ratio at 30 min for this substance: H-RWKLFKKIGAVLKVL-NH2
14

Please give the measured selectivity ratio at 30 min for this substance: H-KWKLFRKIGAVLKVL-NH2
15

====

assay: Selectivity index, ratio of HC50 for hemolytic activity in sheep RBC assessed as 50% hemolysis incubated for 30 mins by microplate reader method to MIC for antibacterial activity against Bacillus subtilis ATCC 6051 assessed as reduction in bacterial growth measured for 18 to 20 hrs by microbroth dilution method; assay type: toxicity; details: sheep red blood cells (erythrocytes), read-out: Selectivity Index
Bridge positions count the residues as written; N and C are the ends. Peptide text beside a SMILES is read from it.
selectivity ratio at 30 min by entry:

molecule | selectivity ratio at 30 min
CC[C@H](C)[C@@H]1NC(=O)[C@H](CCCCN)NC(=O)[C@H](CCCCN)NC(=O)[C@H](Cc2ccccc2)NC(=O)[C@H](CC(C)C)NC(=O)[C@H](CCCCN)NC(=O)[C@H](Cc2c[nH]c3ccccc23)NC(=O)[C@H](CCCCN)NC(=O)[C@@H](N)CSSC[C@@H](C(N)=O)NC(=O)[C@H](CC(C)C)NC(=O)[C@H](C(C)C)NC(=O)[C@H](CCCCN)NC(=O)[C@H](CC(C)C)NC(=O)[C@H](C(C)C)NC(=O)[C@H](C)NC(=O)CNC1=O (H-CKWKLFKKIGAVLKVLC-NH2; disulfide 1-17) | > 125

Next molecule, selectivity ratio at 30 min to be filled in.
Please give the measured selectivity ratio at 30 min for this molecule: CC[C@H](C)[C@H](NC(=O)[C@H](CCCN)NC(=O)[C@H](CCCN)NC(=O)[C@H](Cc1ccccc1)NC(=O)[C@H](CC(C)C)NC(=O)[C@H](CCCN)NC(=O)[C@H](Cc1c[nH]c2ccccc12)NC(=O)[C@@H](N)CCCN)C(=O)NCC(=O)N[C@@H](C)C(=O)N[C@H](C(=O)N[C@@H](CC(C)C)C(=O)N[C@@H](CCCN)C(=O)N[C@H](C(=O)N[C@@H](CC(C)C)C(N)=O)C(C)C)C(C)C
> 31

====

assay: Hemolytic activity in sheep RBC assessed as 50% hemolysis incubated for 30 mins by microplate reader method; assay type: toxicity, cell-based, Ovis aries, Erythrocyte; conditions: sheep red blood cells (erythrocytes)
parameter: HC50 at 0.5 h (µg/mL)
Express your answer in µg/mL, writing the number without its unit.

substance | HC50 at 0.5 h (µg/mL)
H-KWRLFKKIGAVLKVL-NH2 | 750

Please give the measured HC50 at 0.5 h for this substance: H-KWKLFKKIGAVLKVL-NH2
690

Please give the measured HC50 at 0.5 h for this substance: H-RWKLFKKIGAVLKVL-NH2
450

Please give the measured HC50 at 0.5 h for this substance: H-RWRLFRRIGAVLRVL-NH2
230

Please give the measured HC50 at 0.5 h for this substance: H-KWKLFKKIGAVLRVL-NH2
280

Please give the measured HC50 at 0.5 h for this substance: H-KWKLFRKIGAVLKVL-NH2
935

====

assay: Selectivity index, ratio of HC50 for hemolytic activity in sheep RBC assessed as 50% hemolysis incubated for 30 mins by microplate reader method to MIC for antibacterial activity against Pseudomonas aeruginosa ATCC 27853 assessed as reduction in bacterial growth measured for 18 to 20 hrs by microbroth dilution method; format: toxicity; details: sheep red blood cells (erythrocytes), read-out: Selectivity Index
Bridge positions count the residues as written; N and C are the ends. Peptide text beside a SMILES is read from it.
selectivity ratio at 30 min by entry:

compound | selectivity ratio at 30 min
CC[C@H](C)[C@H](NC(=O)[C@H](CCCN)NC(=O)[C@H](CCCN)NC(=O)[C@H](Cc1ccccc1)NC(=O)[C@H](CC(C)C)NC(=O)[C@H](CCCN)NC(=O)[C@H](Cc1c[nH]c2ccccc12)NC(=O)[C@@H](N)CCCN)C(=O)NCC(=O)N[C@@H](C)C(=O)N[C@H](C(=O)N[C@@H](CC(C)C)C(=O)N[C@@H](CCCN)C(=O)N[C@H](C(=O)N[C@@H](CC(C)C)C(N)=O)C(C)C)C(C)C | > 125

Next compound, selectivity ratio at 30 min to be filled in.
Please give the measured selectivity ratio at 30 min for this compound: CC[C@H](C)[C@@H]1NC(=O)[C@H](CCCCN)NC(=O)[C@H](CCCCN)NC(=O)[C@H](Cc2ccccc2)NC(=O)[C@H](CC(C)C)NC(=O)[C@H](CCCCN)NC(=O)[C@H](Cc2c[nH]c3ccccc23)NC(=O)[C@H](CCCCN)NC(=O)[C@@H](N)CSSC[C@@H](C(N)=O)NC(=O)[C@H](CC(C)C)NC(=O)[C@H](C(C)C)NC(=O)[C@H](CCCCN)NC(=O)[C@H](CC(C)C)NC(=O)[C@H](C(C)C)NC(=O)[C@H](C)NC(=O)CNC1=O (H-CKWKLFKKIGAVLKVLC-NH2; disulfide 1-17)
> 63

====

hemolysis at 0.5 h by entry:
test: Hemolytic activity in sheep RBC assessed as hemolysis incubated for 30 mins by microplate reader method; type: toxicity, cell-based, Ovis aries, Erythrocyte; details: sheep red blood cells (erythrocytes), read-out: Activity
Express your answer in %, writing the number without its unit.

Below, 3 substances whose answers are already recorded.
substance | hemolysis at 0.5 h (%)
H-KWRLFKKIGAVLKVL-NH2 | 10
H-KWKLFRKIGAVLKVL-NH2 | 10
H-KWKLFKKIGAVLKVL-NH2 | 10

Please give the measured hemolysis at 0.5 h for this substance: H-RWKLFKKIGAVLKVL-NH2
10

Please give the measured hemolysis at 0.5 h for this substance: H-KWKLFKKIGAVLRVL-NH2
10

Please give the measured hemolysis at 0.5 h for this substance: H-KWKLFKRIGAVLKVL-NH2
10
